- Test system: HOP-62 NSCLC
- Assay Method Text: NCI-60 one-dose screen, 48 h (100 = growth as untreated, 0 = no growth, -100 = all killed)
- Condition Details: 10 µM unless noted
This is part of a sample that, as a whole, favours compounds with a hit. Of some 83,000 tested, about 20% had one in any assay.
Sorting guide: entries reporting growth beneath 80% go in the Met pile, the rest go in the Not met pile.

Answered cases to consult:
Molecule | Target Or System | Class Assignment
N#Cc1nnn(-c2ccc(S(N)(=O)=O)cc2)c1NC(=O)CCl | HOP-62 NSCLC | Not met
C=CC(COC(c1ccccc1)(c1ccccc1)c1ccccc1)N(CC)CC (stereo not given) | HOP-62 NSCLC | Met
N#Cc1c(-c2ccc(Cl)cc2)nc(N/N=C/c2cccc(Br)c2)nc1N1CCOCC1 | HOP-62 NSCLC | Not met
CCOC(=O)c1c(C)oc2ncnc(N3CCN(C(=O)COc4ccc(SC)cc4)CC3)c12 | HOP-62 NSCLC | Not met
Cn1c(NCCc2ccc(O)c(O)c2)nc2c1c(=O)n(Cc1ccc(Br)cc1)c(=O)n2C | HOP-62 NSCLC | Not met

Take the molecule `COc1ccc(-c2cc(NC(=O)Nc3ccc4ncsc4c3)no2)cc1` and say whether its growth is less than 80%. Not met

For `O=C1Nc2cc(-c3ccc(O)cc3)ccc2/C1=C/c1ccc[nH]1` then? Met

For `N#Cc1c(-c2ccc(Cl)cc2)nc(NN=Cc2ccco2)nc1N1CCOCC1` then? Met

* * *

- Test system: HS 578T breast
- Assay Method Text: NCI-60 one-dose screen, 48 h
- Condition Details: 10 µM unless noted
The panel holds about 83,000 compounds, 20% with a hit somewhere; the sample as a whole holds those more often. Active and inactive are the calls of the source. How the source made its calls: active means growth percent below 10; inactive means the rest.
Bench note: report the call from T = active, F = inactive

Dear all, I need the recorded test outcome for `O=C(/C=C/C=C/c1ccc2c(c1)OCO2)N/N=C\c1ccc(O)cc1O` , thank you. F

* * *

- Tested on: NCI/ADR-RES ovarian
- Assay Method Text: NCI-60 one-dose screen, 48 h
- Condition Details: 10 µM unless noted
About 83,000 compounds went through this panel and 20% of them were active in at least one assay; those are over-represented in the sample as a whole. Activity calls are given as the source filed them. The calls were made as follows: active = growth percent below 10; inactive = the rest.
Bench note: report the call from Y (active), N (inactive)

Dear all, I need the recorded test outcome for `O=S(=O)(Nc1ccc(Cl)c(F)c1)c1ccc(-c2cnc(C3CC3)o2)cc1` , thank you. Y

For `O=C(Nc1cccc2[nH]c(C(F)(F)F)nc12)c1ccc(-n2cnnn2)cc1` then? N

* * *

Exercise: for every item that follows, state its recorded growth.
- Test system: OVCAR-8 ovarian
- Assay Method Text: NCI-60 one-dose screen, 48 h (100 = growth as untreated, 0 = no growth, -100 = all killed)
- Condition Details: 10 µM unless noted
- Procedure: Growth inhibition of the OVCAR-8 human tumor cell line is measured as a screen for anti-cancer activity. Cells are grown in 96 well plates and exposed to the test compound for 48 hours. Compounds are tested at a single concentration, which is 10^-5 M for most compounds. The reported endpoint is percent growth (GI% or GIPRCNT), where numbers from 0 - 100% represent growth inhibition, and numbers from -100% - 0 represent cell death. For example, a value of 40 represents 60% growth inhibition. […]
About 83,000 compounds went through this panel and 20% of them were active in at least one assay; those are over-represented in the sample as a whole.
Give bare numbers, in %.

Compound | growth / %
C/C1=C\CC[C@@]2(C)O[C@H]2[C@H]2OC(=O)C(CN3CCN(CC4C(=O)O[C@H]5[C@H]4CC/C(C)=C/CC[C@@]4(C)O[C@@H]54)CC3)[C@@H]2CC1 (some centres not stated) | 91.5

Parameter requested: growth. Apply to each item below.
1. CCOC(=O)c1c(C(=O)OCC)c2cc(-c3ccn4c(C(=O)c5ccccc5)c(C(=O)OCC)c(C(=O)OCC)c4c3)ccn2c1C(=O)c1ccccc1
2. C=C(C)[C@@H]1CC[C@]2(C(=O)OC)CC[C@]3(C)[C@H](CC[C@@H]4[C@@]5(C)C/C(=C/c6cccc(I)c6)C(=O)C(C)(C)[C@@H]5CC[C@]43C)[C@@H]12
3. COc1ccc2c(c1)C(=O)/C(=C/c1ccccn1)CC2

71.8
101
85.4

Parameter requested: growth. Apply to each item below.
1. COc1cc(C)c(C2C(C#N)=C(N)Oc3n[nH]c(-c4cccs4)c32)cc1C(C)C (configuration not stated)
2. COc1cccc(-c2nc3sccn3c2-c2ccnc(NCCCNS(=O)(=O)c3c(Cl)cccc3Cl)c2)c1

1: 89.1; 2: 51.5

Return growth measured with OVCAR-8 ovarian given this compound: `COc1ccc(-n2nc(C)c3c(Oc4ccc(NC(=O)Nc5c(Cl)cccc5Cl)cc4)ncnc32)cc1` 97.4

* * *

- Tested on: ACHN renal
- Assay Method Text: NCI-60 one-dose screen, 48 h (100 = growth as untreated, 0 = no growth, -100 = all killed)
- Condition Details: 10 µM unless noted
About 83,000 compounds went through this panel and 20% of them were active in at least one assay; those are over-represented in the sample as a whole.
Metric Name: growth (%)
Give bare numbers, in %.

Molecule | Target Or System | Units Text | growth
CC(=O)O[C@H]1[C@@H]2OC(=O)C(CSc3ccccc3)[C@@H]2C[C@H]2O[C@]2(C)CC/C=C(\C)CCC[C@@H]1C (stereo not given in full) | ACHN renal | % | 33.5
OCCN1CCN(c2nc(Nc3ccc(-c4nc5ccccc5[nH]4)cc3)c3cn[nH]c3n2)CC1 | ACHN renal | % | -85.3
COc1ccc(C(=S)N2CCN(c3cccc(Cl)c3)CC2)cc1 | ACHN renal | % | 109

Parameter requested: growth. Apply to each item below.
1. O=C1NC(=O)C(c2ccc(Cl)cc2Cl)N1 (stereo not given)
2. O=C1c2cccc3cccc(c23)C(=O)N1CCCCN1CCN(CCCCOc2ccc(-c3nc4ccc(N5CCOCC5)cc4[nH]3)cc2)CC1
3. CC(=O)Oc1ccc(Cl)cc1CN(C(C)=O)C1CCCCC1
4. C=C(C)C1CC(O)C2(C)CCCC3C2C1CC(C)C3(C)CC/C(C)=C/C(O)C1CCC(=O)c2c(OC)cc(OC)cc21 (stereo not given)

1: 110; 2: 104; 3: 102; 4: 41.1

Parameter requested: growth. Apply to each item below.
1. Cc1ccc(OC(=O)c2ccc(Cl)cc2)cc1
2. CCCSc1ccc2nc(NC(=O)OC)[nH]c2c1
3. Cn1cc(C(=O)c2nc(-c3c[nH]c4ccccc34)no2)c2ccccc21
4. COc1cc(/C=C/c2cc(/C=C/c3ccc(O)c(OC)c3)n(-c3c(C)cccc3C)c(=O)n2)ccc1O
5. COc1cc(Nc2cc(C)nc(N3CCN(c4ccnc5cc(Cl)ccc45)CC3)n2)cc(OC)c1
6. Cc1ccc(C2=NN3C(C2)c2cc(Br)ccc2OC32CCN(Cc3ccccc3)CC2)o1 (stereo not given)
7. COc1ccc(N=Nc2nccs2)c(O)c1

95.6
48.6
86.4
6.48
7.48
98.7
18.4

Parameter requested: growth. Apply to each item below.
1. Cc1ccccc1COc1ccc(-c2onc(C)c2-c2ccc(Cl)cc2)cc1
2. COc1nc2c(c(=O)n1C)CN(Cc1ccccc1)C=N2
3. CN(Cc1cc(Cl)cc(Cl)c1O)Cc1cc(Cl)cc(Cl)c1O
4. CNC(=O)c1cc(Oc2ccc(NC(=O)Nc3ccc(Cl)c(SC)c3)c(F)c2)ccn1

1: 67; 2: 106; 3: 52.8; 4: 52.6

Parameter requested: growth. Apply to each item below.
1. CCOc1cc2ncc(C#N)c(Nc3ccc(OCc4cccc(F)c4)c(Cl)c3)c2cc1NC(=O)CC1CCSS1 (stereo not given)
2. COc1ccc(/C=C/C(=O)c2ccc(O)c(CN3CCN(c4cc5c(cc4F)c(=O)c(C(=O)O)cn5C4CC4)CC3)c2)cc1

[59.7, 25.5]

* * *

- System: OVCAR-3 ovarian
- Assay Method Text: NCI-60 one-dose screen, 48 h
- Condition Details: 10 µM unless noted
This is part of a sample that, as a whole, favours compounds with a hit. Of some 83,000 tested, about 20% had one in any assay. Calls of active or inactive are those of the source. How the source made its calls: active means growth percent below 10; inactive means the rest.
Bench note: report the call from yes (1) for active, no (0) for inactive

Answered cases to consult:
Compound | Class Assignment
Nc1n[nH]c2cc(F)c([C@@H]3Nc4ccc5[nH]ncc5c4[C@H]4C5CCC(C5)[C@@H]34)cc12 (stereo not given in full) | no (0)
O=C(CCl)Oc1ccc(-c2ccccc2)c(Br)c1 | no (0)

Dear all, I need the recorded test outcome for `CC(=O)c1cc2c(N)c(C(=O)Nc3ccccc3)sc2nc1C` , thank you. no (0)

For `COc1ccc(CN2c3ccccc3Oc3ccccc32)cc1O` then? no (0)

For `NS(=O)(=O)c1ccc(CN=C2NC(=O)S/C2=C\c2ccc(Br)cc2)cc1` then? no (0)
